- target-under-test: BIR3 domain of cIAP2 (Homo sapiens)
- Sequence (Q13489 238-349 limits assumed): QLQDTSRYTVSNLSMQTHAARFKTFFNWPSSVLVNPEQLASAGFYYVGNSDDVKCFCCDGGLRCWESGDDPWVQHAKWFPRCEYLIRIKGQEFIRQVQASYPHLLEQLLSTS
- protocol-text: Fluorescence polarization assay
- condition-notes: SMAC-FITC probe, Ki calculated from IC50
- Method: Binding of compounds to ML-IAP and BIR3 domain of cIAP1, cIAP2 and XIAP was determined by fluorescence polarization. […] Assays were run in 384-well black plates read (Greiner Bio-One #784076) in an Analyst in fluorescence polarization mode with excitation at 485 nm and emission at 535 nm. […] Ki's were then calculated from the IC50 values using equation: Ki=[I]50/([L]50/Kd+[P]0/Kd+1) formulated by Z. Nikolovska-Coleska et al.
pKi: −log10 of the molar value.
parameter-measured: pKi

Would you please look over these solved cases?
{"columns": ["compound", "target-under-test", "pKi"],
 "data": [
  ["CN[C@@H](C)C(=O)N[C@H]1CCS[C@H]2CC(C)(C)[C@@H](C(=O)N[C@H]3c4ccccc4C[C@H]3OCCCCCCO[C@@H]3Cc4ccccc4[C@@H]3NC(=O)[C@H]3N4C(=O)[C@@H](NC(=O)[C@H](C)NC)CCS[C@H]4CC3(C)C)N2C1=O [Compound 18b]", "BIR3 domain of cIAP2 (Homo sapiens)", "7.00 to 7.30"],
  ["CC[C@H](NC)C(=O)N[C@H]1CCS[C@H]2CC(C)(C)[C@@H](C(=O)N[C@H]3c4ccccc4C[C@H]3OCC#CC#CCO[C@@H]3Cc4ccccc4[C@@H]3NC(=O)[C@H]3N4C(=O)[C@@H](NC(=O)[C@H](CC)NC)CCS[C@H]4CC3(C)C)N2C1=O [Compound 18m]", "BIR3 domain of cIAP2 (Homo sapiens)", "7.00 to 7.30"],
  ["CN[C@@H](C)C(=O)N[C@H]1CCS[C@H]2CC(C)(C)[C@@H](C(=O)N[C@H]3c4ccccc4C[C@H]3OCC#Cc3ccc(CO[C@@H]4Cc5ccccc5[C@@H]4NC(=O)[C@H]4N5C(=O)[C@@H](NC(=O)[C@H](C)NC)CCS[C@H]5CC4(C)C)cc3)N2C1=O [Compound 18e]", "BIR3 domain of cIAP2 (Homo sapiens)", "6.70 to 7.00"]
]}

Challenge: Dear colleague, I am looking for the recorded pKi of the following compound: CN[C@@H](C)C(=O)N[C@H]1CCS[C@H]2CC(C)(C)[C@@H](C(=O)N[C@H](CCOCC#CC#CCOCC[C@@H](NC(=O)[C@H]3N4C(=O)[C@@H](NC(=O)[C@H](C)NC)CCS[C@H]4CC3(C)C)c3ccccc3)c3ccccc3)N2C1=O [Compound 18i]
Response given: 7.00 to 7.30
